- target desc: human factor D (Homo sapiens (Human), UniProt P00746)
- Sequence (P00746 26-253): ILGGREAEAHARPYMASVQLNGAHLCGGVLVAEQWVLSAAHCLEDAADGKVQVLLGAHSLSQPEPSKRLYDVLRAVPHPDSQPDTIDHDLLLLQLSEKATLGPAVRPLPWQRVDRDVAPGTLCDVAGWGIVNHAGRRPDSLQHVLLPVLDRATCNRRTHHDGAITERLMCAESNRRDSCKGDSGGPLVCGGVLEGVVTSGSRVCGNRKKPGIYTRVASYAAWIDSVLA
- protocol: biochemical
- Type: biochemical
- condition label: Factor D inhibition data using Method 1; recombinant human factor D 10 nM, substrate Z-Lys-thiobenzyl, fluorescence; read-out: IC50
pIC50: −log10 of the molar value.
Classification field: enter yes (1) for pIC50 values not below 7, no (0) for values below it.

Below, 3 compounds whose answers are already recorded.
# compound, target desc, group label
rows = [
    ("CC(=O)c1nn(CC(=O)N2[C@@H]3C[C@@H]3C[C@H]2C(=O)NCC2CC(C)C2)c2cnccc12 (stereo partly drawn) [Example 7]", "human factor D (Homo sapiens (Human), UniProt P00746)", "no (0)"),
    ("CC(=O)c1nn(CC(=O)N2[C@@H]3C[C@@H]3C[C@H]2C(=O)N[C@H](C)[C@H]2CC2(Cl)Cl)c2ccc(OCc3cc(C)[nH]n3)cc12 [Example 64]", "human factor D (Homo sapiens (Human), UniProt P00746)", "yes (1)"),
    ("CC(=O)c1nn(CC(=O)N2[C@@H]3C[C@@H]3C[C@H]2C(=O)NCC2CCCC(C)(C)C2)c2cnccc12 (single isomer, unassigned; dia 1) [Example 17]", "human factor D (Homo sapiens (Human), UniProt P00746)", "no (0)"),
]

Exercise: Decide: is the reported value of pIC50 for Cc1cc2c(C(N)=O)nn(CC(=O)N3[C@@H]4C[C@@H]4C[C@H]3C(=O)N[C@H](C)[C@H]3CC3(Cl)Cl)c2cn1 [Example 38] equal to or greater than 7?
Solution: yes (1)

----------
Give measured log10(IC50) for each item. Keep answers brief.
- target desc: human factor D (Homo sapiens (Human))
- protocol: biochemical
- Format: biochemical
- condition label: IC50, Factor D inhibition data using Method 1; recombinant human factor D 10 nM, substrate Z-Lys-thiobenzyl, fluorescence
Values below are the log10 of the recorded IC50, with nM as the unit.

Example cases with answers are listed next.
# compound, target desc, log10(IC50)
rows = [
    ("CC(=O)c1nn(CC(=O)N2[C@@H]3C[C@@H]3C[C@H]2C(=O)NCC2C(C)C2(Cl)Cl)c2ccc(OCc3ncccn3)cc12 (single isomer, unassigned; dia 2) [Example 109]", "human factor D (Homo sapiens (Human))", 1.69),
    ("NC(=O)c1nn(CC(=O)N2[C@@H]3C[C@@H]3C[C@H]2C(=O)NC(CO)C2CC2(Cl)Cl)c2ccccc12 (single isomer, unassigned; dia 4) [Example 51]", "human factor D (Homo sapiens (Human))", 2.39),
]

Here are 3 compounds. What values of log10(IC50) were reported for them?
1. CC(=O)c1nn(CC(=O)N2[C@@H]3C[C@@H]3C[C@H]2C(=O)NC(C)C2CC2(Cl)Cl)c2ccc(OCc3ncccn3)cc12 (single isomer, unassigned; dia 2) [Example 33]
2. NC(=O)c1nn(CC(=O)N2[C@@H]3C[C@@H]3C[C@H]2C(=O)NC(CO)C2CC2(Cl)Cl)c2ccccc12 (single isomer, unassigned; dia 2) [Example 24]
3. CC1C(CNC(=O)[C@@H]2C[C@H]3C[C@H]3N2C(=O)Cn2nc(C(N)=O)c3ccncc32)C1(Cl)Cl (single isomer, unassigned; dia 1) [Example 79]

Solution:
1. 2.48
2. 2.88
3. 2.36

----------
Give measured IC50 for each item. Keep answers brief.
- target desc: human factor D (Homo sapiens (Human))
- protocol: biochemical
- Format: biochemical
- condition label: IC50, Factor D inhibition data using Method 1; recombinant human factor D 10 nM, substrate Z-Lys-thiobenzyl, fluorescence
Answers are plain numbers, in nM.

Example cases with answers are listed next.
# compound, result type, reported result
measured = [
    ("NC(=O)c1nn(CC(=O)N2[C@@H]3C[C@@H]3C[C@H]2C(=O)NC(CO)C2CC2(Cl)Cl)c2ccccc12 (single isomer, unassigned; dia 1) [Example 23]", "IC50", 1610),
    ("CC1C(CNC(=O)[C@@H]2C[C@H]3C[C@H]3N2C(=O)Cn2nc(C(N)=O)c3ccccc32)C1(Cl)Cl (single isomer, unassigned; dia 2) [Example 74]", "IC50", 12),
]

Below: the item to evaluate.
Exercise: Value lookup for IC50; key = CC1C(CNC(=O)[C@@H]2C[C@H]3C[C@H]3N2C(=O)Cn2nc(C(N)=O)c3ccncc32)C1(Cl)Cl (single isomer, unassigned; dia 2) [Example 80]
Solution: 98

----------
- target desc: human factor D (Homo sapiens (Human), UniProt P00746)
- protocol: biochemical
- Assay type: biochemical
- condition label: Factor D inhibition data using Method 1; recombinant human factor D 10 nM, substrate Z-Lys-thiobenzyl, fluorescence; read-out: IC50
Rule for this label: 1 means IC50 is less than 0.04 µM; 0 means IC50 is at least 0.04 µM.

# compound, group label
measured = [
    ("NC(=O)c1nn(CC(=O)N2[C@@H]3C[C@@H]3C[C@H]2C(=O)NC[C@H]2CC2(Cl)Cl)c2ccc(F)cc12 [Example 98]", 0),
    ("NC(=O)c1nn(CC(=O)N2[C@@H]3C[C@@H]3C[C@H]2C(=O)NC[C@H]2CC2(Cl)Cl)c2cnccc12 [Example 72]", 1),
    ("CC(=O)c1nn(CC(=O)N2[C@@H]3C[C@@H]3C[C@H]2C(=O)NCC2CCCC(C)C2)c2cnccc12 (single isomer, unassigned; dia 1) [Example 119]", 0),
    ("CC(=O)c1nn(CC(=O)N2[C@@H]3C[C@@H]3C[C@H]2C(=O)NCC2CC(F)(F)C2)c2ccc(OCc3ncccn3)cc12 [Example 62]", 0),
    ("C[C@@H](NC(=O)[C@@H]1C[C@H]2C[C@H]2N1C(=O)Cn1nc(C(N)=O)c2ccc(Cl)cc21)[C@H]1CC1(Cl)Cl [Example 49]", 1),
    ("CC(=O)c1nn(CC(=O)N2[C@@H]3C[C@@H]3C[C@H]2C(=O)NCC2CC2)c2ncccc12 [Example 1]", 0),
    ("CCC1(CC)CC1CNC(=O)[C@@H]1C[C@H]2C[C@H]2N1C(=O)Cn1nc(C(C)=O)c2cccnc21 (stereo partly drawn) [Example 10]", 0),
    ("CC(=O)c1nn(CC(=O)N2[C@@H]3C[C@@H]3C[C@H]2C(=O)NCC2CC3(CC3)C2)c2cnccc12 [Example 8]", 0),
    ("NC(=O)c1nn(CC(=O)N2[C@@H]3C[C@@H]3C[C@H]2C(=O)NC[C@H]2CC2(Cl)Cl)c2ccc(OCc3nccs3)cc12 [Example 40]", 1),
    ("CC(=O)c1nn(CC(=O)N2[C@@H]3C[C@@H]3C[C@H]2C(=O)NCC2CCCCC2F)c2cnccc12 (mixture of isomers) [Example 16]", 0),
]

Exercise: Determine if CC(=O)c1nn(CC(=O)N2[C@@H]3C[C@@H]3C[C@H]2C(=O)NC[C@@H]2CC2(Cl)Cl)c2ccc(OCc3ncccn3)cc12 [Example 93] shows IC50 strictly lower than 0.04 µM.
Solution: 1

Exercise: Quick one: CC(=O)c1nn(CC(=O)N2[C@@H]3C[C@@H]3C[C@H]2C(=O)N[C@H](C)[C@H]2CC2(Cl)Cl)c2cnccc12 [Example 47]
Solution: 1

----------
- target desc: human factor D (Homo sapiens (Human), UniProt P00746)
- protocol: biochemical
- Format: biochemical
- condition label: Factor D inhibition data using Method 1; recombinant human factor D 10 nM, substrate Z-Lys-thiobenzyl, fluorescence; read-out: IC50
result type: IC50 (nM)
Numbers only, in nM.

# smi, unit spec, IC50
records = [
    ("CO[C@H]1[C@@H](C(=O)NC[C@H]2CC2(Cl)Cl)N(C(=O)Cn2nc(C(N)=O)c3ccc(C)cc32)C[C@@H]1F", "nM", 27),
]

Here are 2 compounds. What values of IC50 were reported for them?
1. CC(=O)c1nn(CC(=O)N2[C@@H]3C[C@@H]3C[C@H]2C(=O)N[C@H](CO)C2CCCCC2)c2cnccc12
2. CC(=O)c1nn(CC(=O)N2[C@@H]3C[C@@H]3C[C@H]2C(=O)N[C@H](C)[C@H]2CC2(Cl)Cl)c2ccc(OCc3ccn(C)n3)cc12

Solution:
469
4

----------
- target desc: human factor D (Homo sapiens (Human))
- protocol: biochemical
- Format: biochemical
- condition label: Factor D inhibition data using Method 1; recombinant human factor D 10 nM, substrate Z-Lys-thiobenzyl, fluorescence; read-out: IC50
Give measured log10(IC50) for each item. Keep answers brief.
Values below are the log10 of the recorded IC50, with nM as the unit.

Example cases with answers are listed next.
# compound, result type, reported result
data = [
    ("NC(=O)c1nn(CC(=O)N2[C@H](C(=O)NC[C@H]3CC3(Cl)Cl)C[C@@]3(CO)C[C@@H]23)c2ccccc12 [Example 52]", "log10(IC50)", 1.75),
    ("NC(=O)n1cc(NC(=O)N2[C@@H]3C[C@@H]3C[C@H]2C(=O)NCC2CC=CCC2)c2ccccc21 (stereo partly drawn) [Example 26]", "log10(IC50)", 2.48),
    ("C[C@@H](NC(=O)[C@@H]1C[C@H]2C[C@H]2N1C(=O)Cn1nc(C(N)=O)c2ccncc21)C1CCCCC1 [Example 55]", "log10(IC50)", 2.20),
    ("C[C@@H](NC(=O)[C@@H]1C[C@H]2C[C@H]2N1C(=O)Cn1nc(C(N)=O)c2ccncc21)[C@H]1CC1(Cl)Cl [Example 37]", "log10(IC50)", 1.04),
]

Here are 2 compounds. What values of log10(IC50) were reported for them?
1. CC1(C)[C@H](CNC(=O)[C@@H]2C[C@H]3C[C@H]3N2C(=O)Nc2cn(C(N)=O)c3ccccc23)C1(Cl)Cl [Example 27]
2. CC1CCCC1CNC(=O)[C@@H]1C[C@H]2C[C@H]2N1C(=O)Cn1nc(C(N)=O)c2ccncc21 (single isomer, unassigned; dia 2) [Example 86]

Solution:
[1.28, 2.79]
